This collection of values is drawn from PubChem BioAssay AID1918934.

- Test system: 292921-168-R-J2-PDC complex spheroid viability
- Procedure Summary: Anticancer human tumor 292921-168-R-J2-PDC patient-derived pancreatic carcinoma cell line growth inhibition; active = viability on the fitted dose curve at most 10% of control; inactive = the rest
- Run Parameters: second compound 1 µM; first compound 10 µM
- Excerpt: Multicellular complex tumor spheroid response to LSD1 Inhibitor Iadademstat in combination with a variety of drugs and investigational agents in selected tumor cell lines The current study was undertaken to assess response to LSD1 inhibitors in combination with standard-of-care drugs and investigational agents in solid tumor complex spheroid models as well as in the K-562 leukemia. […] Compounds. […] If the clinical Cmax for an agent had not been determined, the highest concentration tested was 10 microM. […]
One label from this list, please: YES for active, NO for inactive

Previously resolved entries follow.
CC(C)c1c(-c2ccccc2)nc2c(C#N)c[nH]n2c1=O + NC1CC1c1ccc(-c2cccc(O)c2)cc1 ... NO
COc1ccc([C@@H](O)c2cc(-c3ncnc4cc(N5CCOCC5)ccc34)c(F)cc2Cl)nn1 + NC1CCC(NC2CC2c2ccccc2)CC1 ... NO
O=C(c1cc(Cc2n[nH]c(=O)c3ccccc23)ccc1F)N1CCN(C(=O)C2CC2)CC1 + NC1CCC(NC2CC2c2ccccc2)CC1 ... NO

## Input Give the logged outcome of this assay for the following compound: CC(C)c1c(-c2ccccc2)nc2c(C#N)c[nH]n2c1=O + NC1CCC(NC2CC2c2ccccc2)CC1
## Output NO

## Input Give the logged outcome of this assay for the following compound: CC1(C)CCC(CN2CCN(c3ccc(C(=O)NS(=O)(=O)c4ccc(NCC5CCOCC5)c([N+](=O)[O-])c4)c(Oc4cnc5[nH]ccc5c4)c3)CC2)=C(c2ccc(Cl)cc2)C1 + NC1CC1c1ccc(-c2cccc(O)c2)cc1
## Output YES

## Input Give the logged outcome of this assay for the following compound: CC1COCCN1c1cc(C2(S(C)(=N)=O)CC2)nc(-c2ccnc3[nH]ccc23)n1 (stereo not given) + NC1CC1c1ccc(-c2cccc(O)c2)cc1
## Output NO

## Input Give the logged outcome of this assay for the following compound: COc1ccc([C@@H](O)c2cc(-c3ncnc4cc(N5CCOCC5)ccc34)c(F)cc2Cl)nn1 + NC1CC1c1ccc(-c2cccc(O)c2)cc1
## Output NO

## Input Give the logged outcome of this assay for the following compound: CC1COCCN1c1cc(C2(S(C)(=N)=O)CC2)nc(-c2ccnc3[nH]ccc23)n1 (stereo not given) + NC1CCC(NC2CC2c2ccccc2)CC1
## Output NO

## Input Give the logged outcome of this assay for the following compound: O=C(c1cc(Cc2n[nH]c(=O)c3ccccc23)ccc1F)N1CCN(C(=O)C2CC2)CC1 + NC1CC1c1ccc(-c2cccc(O)c2)cc1
## Output NO

## Input Give the logged outcome of this assay for the following compound: CC1(C)CCC(CN2CCN(c3ccc(C(=O)NS(=O)(=O)c4ccc(NCC5CCOCC5)c([N+](=O)[O-])c4)c(Oc4cnc5[nH]ccc5c4)c3)CC2)=C(c2ccc(Cl)cc2)C1 + NC1CCC(NC2CC2c2ccccc2)CC1
## Output YES

---

- Test system: 292921-168-R-J2-PDC complex spheroid viability
- Procedure Summary: Anticancer human tumor 292921-168-R-J2-PDC cell line growth inhibition;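 also: seven day compound exposure before luminescent viability read; 100% = DMSO vehicle control wells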
- Run Parameters: second compound 3.16 µM; first compound 0.316 µM; hits give low values
Each record here notes measured viability, T/C.

CC1(C)CCC(CN2CCN(c3ccc(C(=O)NS(=O)(=O)c4ccc(NCC5CCOCC5)c([N+](=O)[O-])c4)c(Oc4cnc5[nH]ccc5c4)c3)CC2)=C(c2ccc(Cl)cc2)C1 + NC1CCC(NC2CC2c2ccccc2)CC1 ... 62.3%
CC1(C)CCC(CN2CCN(c3ccc(C(=O)NS(=O)(=O)c4ccc(NCC5CCOCC5)c([N+](=O)[O-])c4)c(Oc4cnc5[nH]ccc5c4)c3)CC2)=C(c2ccc(Cl)cc2)C1 + NC1CC1c1ccc(-c2cccc(O)c2)cc1 ... 58.3%
Nc1ncn(C2CC(O)C(CO)O2)c(=O)n1 (stereo unspecified) + NC1CCC(NC2CC2c2ccccc2)CC1 ... 41.3%
O=C(c1cc(Cc2n[nH]c(=O)c3ccccc23)ccc1F)N1CCN(C(=O)C2CC2)CC1 + NC1CCC(NC2CC2c2ccccc2)CC1 ... 60%
CC(C)c1c(-c2ccccc2)nc2c(C#N)c[nH]n2c1=O + NC1CCC(NC2CC2c2ccccc2)CC1 ... 52.8%

Now consider a different compound.
## Input Please report the measured viability, T/C for O=C(c1cc(Cc2n[nH]c(=O)c3ccccc23)ccc1F)N1CCN(C(=O)C2CC2)CC1 + NC1CC1c1ccc(-c2cccc(O)c2)cc1
## Output 63%

---

- System: 292921-168-R-J2-PDC complex spheroid viability
- Procedure Summary: Anticancer human tumor 292921-168-R-J2-PDC cell line growth inhibition; active = viability on the fitted dose curve at most 10% of control; inactive = the rest;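 also: seven day compound exposure before luminescent viability read; 100% = DMSO vehicle control wells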
- Run Parameters: second compound 0.316 µM; first compound 3 µM
One label from this list, please: active, inactive

CCN(c1cc(-c2ccc(CN3CCOCC3)cc2)cc(C(=O)NCc2c(C)cc(C)[nH]c2=O)c1C)C1CCOCC1 + NC1CCC(NC2CC2c2ccccc2)CC1 ... inactive
COc1cc(C2c3cc4c(cc3C(OC3OC5COC(C)OC5C(O)C3O)C3COC(=O)C23)OCO4)cc(OC)c1O (configuration not stated) + NC1CCC(NC2CC2c2ccccc2)CC1 ... active
O=C(C=Cc1cccc(S(=O)(=O)Nc2ccccc2)c1)NO + NC1CC1c1ccc(-c2cccc(O)c2)cc1 ... active
NS(=O)(=O)OCC1CC(n2ccc3c(NC4CCc5ccccc54)ncnc32)CC1O (configuration not stated) + NC1CCC(NC2CC2c2ccccc2)CC1 ... active
NS(=O)(=O)OCC1CC(n2ccc3c(NC4CCc5ccccc54)ncnc32)CC1O (configuration not stated) + NC1CC1c1ccc(-c2cccc(O)c2)cc1 ... active
COc1cc(C2c3cc4c(cc3C(OC3OC5COC(C)OC5C(O)C3O)C3COC(=O)C23)OCO4)cc(OC)c1O (configuration not stated) + NC1CC1c1ccc(-c2cccc(O)c2)cc1 ... active

Here is another molecule to look at.
## Input Give the logged outcome of this assay for the following molecule: Nc1ccccc1NC(=O)c1ccc(CNC(=O)OCc2cccnc2)cc1 + NC1CC1c1ccc(-c2cccc(O)c2)cc1
## Output active

---

- System: 292921-168-R-J2-PDC complex spheroid viability
- Procedure Summary: Anticancer human tumor 292921-168-R-J2-PDC cell line growth inhibition;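 also: seven day compound exposure before luminescent viability read; 100% = DMSO vehicle control wells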
- Run Parameters: second compound 3.16 µM; first compound 0.3 µM; hits give low values
Each record here notes measured viability, T/C.
The response must be a number in % with no trailing unit.

Known results for molecules:
Nc1ccn(C2OC(CO)C(O)C2(F)F)c(=O)n1 (stereo unspecified) + NC1CCC(NC2CC2c2ccccc2)CC1 ... 8.1
Nc1ccn(C2OC(CO)C(O)C2(F)F)c(=O)n1 (stereo unspecified) + NC1CC1c1ccc(-c2cccc(O)c2)cc1 ... 6.51
Nc1ccccc1NC(=O)c1ccc(CNC(=O)OCc2cccnc2)cc1 + NC1CC1c1ccc(-c2cccc(O)c2)cc1 ... 18.9
O=C(C=Cc1cccc(S(=O)(=O)Nc2ccccc2)c1)NO + NC1CCC(NC2CC2c2ccccc2)CC1 ... 12.4
O=C(C=Cc1cccc(S(=O)(=O)Nc2ccccc2)c1)NO + NC1CC1c1ccc(-c2cccc(O)c2)cc1 ... 22.8
CCc1c2c(nc3ccc(O)cc13)-c1cc3c(c(=O)n1C2)COC(=O)[C@]3(O)CC + NC1CCC(NC2CC2c2ccccc2)CC1 ... 0.91
NS(=O)(=O)OCC1CC(n2ccc3c(NC4CCc5ccccc54)ncnc32)CC1O (stereo unspecified) + NC1CCC(NC2CC2c2ccccc2)CC1 ... 2.14
CCN(c1cc(-c2ccc(CN3CCOCC3)cc2)cc(C(=O)NCc2c(C)cc(C)[nH]c2=O)c1C)C1CCOCC1 + NC1CC1c1ccc(-c2cccc(O)c2)cc1 ... 64.5

## Input Please report the measured viability, T/C for Nc1ncn(C2CC(O)C(CO)S2)c(=O)n1 (stereo unspecified) + NC1CCC(NC2CC2c2ccccc2)CC1
## Output 11

---

- Tested on: 292921-168-R-J2-PDC complex spheroid viability
- Procedure Summary: Anticancer human tumor 292921-168-R-J2-PDC cell line growth inhibition;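 also: seven day compound exposure before luminescent viability read; 100% = DMSO vehicle control wells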
- Run Parameters: second compound 0.316 µM; first compound 0.00949 µM; hits give low values
Rule: viability, T/C below 50% gives Y, anything at or above gives N.

Previously resolved entries follow.
CCN(c1cc(-c2ccc(CN3CCOCC3)cc2)cc(C(=O)NCc2c(C)cc(C)[nH]c2=O)c1C)C1CCOCC1 + NC1CC1c1ccc(-c2cccc(O)c2)cc1 ... N
Nc1ccccc1NC(=O)c1ccc(CNC(=O)OCc2cccnc2)cc1 + NC1CC1c1ccc(-c2cccc(O)c2)cc1 ... Y
CCN(c1cc(-c2ccc(CN3CCOCC3)cc2)cc(C(=O)NCc2c(C)cc(C)[nH]c2=O)c1C)C1CCOCC1 + NC1CCC(NC2CC2c2ccccc2)CC1 ... N
CCc1c2c(nc3ccc(O)cc13)-c1cc3c(c(=O)n1C2)COC(=O)[C@]3(O)CC + NC1CC1c1ccc(-c2cccc(O)c2)cc1 ... Y
NS(=O)(=O)OCC1CC(n2ccc3c(NC4CCc5ccccc54)ncnc32)CC1O (configuration not stated) + NC1CCC(NC2CC2c2ccccc2)CC1 ... N

## Input Take the compound Nc1ccn(C2OC(CO)C(O)C2(F)F)c(=O)n1 (configuration not stated) + NC1CCC(NC2CC2c2ccccc2)CC1 and say whether its viability, T/C is less than 50%.
## Output Y

## Input Take the compound O=C(C=Cc1cccc(S(=O)(=O)Nc2ccccc2)c1)NO + NC1CC1c1ccc(-c2cccc(O)c2)cc1 and say whether its viability, T/C is less than 50%.
## Output N
